Source listed as PubChem BioAssay AID588795.

# target of assay: Flap endonuclease 1 (Homo sapiens) (UniProt P39748)
# Sequence (P39748 whole entry, looked up): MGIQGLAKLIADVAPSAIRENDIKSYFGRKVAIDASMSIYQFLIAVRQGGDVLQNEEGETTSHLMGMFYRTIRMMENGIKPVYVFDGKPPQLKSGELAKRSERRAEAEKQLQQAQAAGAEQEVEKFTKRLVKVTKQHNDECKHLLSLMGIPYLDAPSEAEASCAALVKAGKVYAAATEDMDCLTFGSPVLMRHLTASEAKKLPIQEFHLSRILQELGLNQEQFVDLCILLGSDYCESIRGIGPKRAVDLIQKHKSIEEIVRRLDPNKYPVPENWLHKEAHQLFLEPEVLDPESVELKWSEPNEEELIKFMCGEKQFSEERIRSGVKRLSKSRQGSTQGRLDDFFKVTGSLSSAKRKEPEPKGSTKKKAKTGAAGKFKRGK
# assay text: qHTS Assay for the Inhibitors of Human Flap endonuclease 1 (FEN1). Further: nearly all actives have a fitted effect of over 65% in size.
# stated conditions: Recombinant FEN1 flap cleavage, fluorescence, 15 min; series mostly up to 114 µM
# Method: The major human flap endonuclease FEN1 is an efficient structure-specific enzyme that recognizes and cleaves a 5'-unannealed DNA flap. […] Three uL of reagents (buffer in column 3 and 4 as negative control and 10 nM FEN1 in columns 1, 2, and 5-48) were dispensed into 1,536-well black solid-bottomed plate. […] The plates were then incubated for 15 min at room temperature, and 1 uL substrate (50 nM final concentration) were added to start the reaction read twice at 0 min read and 15 min on ViewLux reader. […]
Screen size: about 390,000 compounds; about 1,400 (0.36%) were called active. Roughly 2% stayed inconclusive and do not appear here. The call rests on the fitted dose curve; in most records, active means well fitted inhibition curve with a large enough effect; inconclusive means small, poorly fitted or top-dose-only effect; inactive means no such curve, though single readings can be large or run the other way. What follows is part of a selection rich in actives, with near analogues and random picks from the rest.
Write down the outcome that applies. Available outcomes: Yes for active, No for inactive

What classification did CC(=O)OC1CCC2(C)C(=CCC3C4CC(=O)N(O)C(=O)C4(C)CCC32)C1 (configuration not stated) end up with in this test?
Yes

Ok, now COc1nc(N=C(N)N)nc2c(C)cccc12
Yes

Ok, now C[N+]1(CC(=O)c2cccs2)CCOCC1
No

Ok, now Cc1ccc(/C=C(\C#N)C(=O)Nc2cc(C)ccc2C)cc1
No

Ok, now COc1ccc2c(c1)c(=Cc1ccc(N(C)C)cc1)c1cc(-c3ccccc3)[n+](C)n12
Yes

Ok, now CCCCOc1ccc(C(=O)NO)cc1
No

Ok, now CN(C)c1ccc(/C=c2\[nH]c(=O)/c(=C/c3ccc(N(C)C)cc3)[nH]c2=O)cc1
No

Ok, now Cc1[nH]c2ccccc2c1C(=O)C(=O)N(C)c1ccccc1
No

Ok, now CS(=O)c1ccc(/C=C2\C=Cc3ccccc32)cc1 (configuration not stated)
No

Ok, now CCOc1ccc(NC(=O)CSc2nnc3c(n2)[nH]c2ccc(S(=O)(=O)N4CCOCC4)cc23)cc1
No

Ok, now CC(C)(C)C1CCC(NC(=O)c2cnn3c2NC(=C2CC2)C=C3C(F)F)CC1 (configuration not stated)
No

Ok, now Nc1nc(N)c(N=O)c(N)n1
No

Ok, now Cc1cc[n+](C2CCCCC2)cc1
No

Ok, now N#CCC(=O)N/N=C/c1cn(Cc2ccc3ccccc3c2)c2ccccc12
No

Ok, now O=C(NCc1ccccc1)C(=O)NCC(c1ccco1)S(=O)(=O)c1ccc(Cl)cc1 (configuration not stated)
No

Ok, now COc1ccc(C2Nc3ccc(NC(=O)COC(C)=O)cc3C(=O)N2Cc2ccccc2)cc1COc1ccc(NC(C)=O)cc1 (configuration not stated)
No

Ok, now Cc1cc(C)c2nc3nc(C)cc(C)c3c(N)c2c1
Yes

Ok, now Cc1ccc(C)c(N2CCN(CCCNC(=O)Nc3ccc(Cl)cc3)CC2)c1
No

Ok, now CC(C)(C)n1ncc2c(=O)n(Cc3c(Cl)cccc3Br)cnc21
No

Ok, now CCOc1ccccc1N(CC)C(=O)Nc1cn(C)c(=O)c2ccccc12
No

Ok, now C[C@]12CC[C@H](O)CC1=CCC1C2CC[C@@]2(C)C1CC[C@@H]2NC(=O)CCC(=O)O (some centres not stated)
No

Ok, now Cc1nc(/N=C(\N)NC(=O)NC2CCCCC2)nc2ccccc12
No
